Kindly supply the reported koff values for the records listed here.
- target.or.system: T1, canine NGF tagged at the C-terminus with the Flag tag (canine, UniProt A0A8I3PYI3 122-241)
- T1 construct: mature; Expressed with baculovirus technology; also called feline NGF (processed form identical)
- T1 sequence (A0A8I3PYI3 entry or part of it): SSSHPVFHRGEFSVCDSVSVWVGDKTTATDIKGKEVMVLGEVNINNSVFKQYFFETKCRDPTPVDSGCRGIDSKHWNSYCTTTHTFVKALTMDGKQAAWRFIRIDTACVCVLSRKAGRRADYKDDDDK
- protocol.notes: SPR off-rate screen, Fab-SASA on BSA chip
Give the number; s⁻¹ is assumed, so skip it.

Give recorded koff. felinized clone 101 Fab-SASA variant S53P (VH) (Fab, V domains shown, not shown: small tags and cut ends) VH: DVQLVESGGDLVKPGGSLRLTCVASGLSLTSSSMSWVRQAPGKGLQWVSTIYPNGGTYYTDSVKGRFTISKDNAENTLYLQMNNLKTEDTATYYCASIYYYDADYLHWYFDFWGQGALVTVSS VL: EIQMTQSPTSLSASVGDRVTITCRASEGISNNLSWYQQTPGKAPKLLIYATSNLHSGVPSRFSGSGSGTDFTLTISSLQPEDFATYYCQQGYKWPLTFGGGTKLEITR
0.000695

Give recorded koff. felinized clone 101 Fab-SASA variant D104N (VH) (Fab, V domains shown, not shown: small tags and cut ends) VH: DVQLVESGGDLVKPGGSLRLTCVASGLSLTSSSMSWVRQAPGKGLQWVSTIYSNGGTYYTDSVKGRFTISKDNAENTLYLQMNNLKTEDTATYYCASIYYYDANYLHWYFDFWGQGALVTVSS VL: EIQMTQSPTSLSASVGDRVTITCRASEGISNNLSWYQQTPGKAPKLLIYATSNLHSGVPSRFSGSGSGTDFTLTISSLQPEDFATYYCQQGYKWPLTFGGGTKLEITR
0.000446

Give recorded koff. felinized clone 101 Fab-SASA variant H55I (VL) (Fab, V domains shown, not shown: small tags and cut ends) VH: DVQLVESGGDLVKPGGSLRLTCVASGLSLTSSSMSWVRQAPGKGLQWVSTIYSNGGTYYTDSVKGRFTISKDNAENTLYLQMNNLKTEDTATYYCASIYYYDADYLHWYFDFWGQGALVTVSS VL: EIQMTQSPTSLSASVGDRVTITCRASEGISNNLSWYQQTPGKAPKLLIYATSNLISGVPSRFSGSGSGTDFTLTISSLQPEDFATYYCQQGYKWPLTFGGGTKLEITR
0.000436
